Would you kindly list T/C for each of these compounds?
tested on: L1210 leukemia ip in BDF1 mice, survival T/C; assay: NCI In Vivo Anticancer Drug Screen. Data for tumor model L1210 Leukemia (intraperitoneal) in B6D2F1 (BDF1) mice; conditions: endpoint: mean survival time; dose: 400.0 mg/kg/injection; schedule: Q04DX002 (ip); vehicle: Klucel (hydroxypropylcellulose) (HPC); higher = longer survival
Inconclusive results and toxic doses are left out.

Tell me the measured T/C of `Nc1ccc(S(=O)(=O)Nc2ccccn2)cc1` , please.
98 % of control

Tell me the measured T/C of `O=C(Nc1ccc2ccccc2c1)C1CC1` , please.
115 % of control

Tell me the measured T/C of `Cc1ccc(NC(=O)Oc2ccccc2C(=O)OCc2ccccc2)cc1` , please.
107 % of control

Tell me the measured T/C of `O=C(Nc1cccc2ccccc12)SCc1ccccc1` , please.
90 % of control

Tell me the measured T/C of `CC(C)c1ccccc1OC(=O)NC1CCCCC1` , please.
104 % of control

Tell me the measured T/C of O=S(=O)(c1ccccc1)C1C2CCC(O2)C1S(=O)(=O)c1ccccc1 (stereo unspecified) , please.
89 % of control

Tell me the measured T/C of `Cc1ccc(C(=O)N/N=C/c2ccc(Cl)cc2Cl)cc1` , please.
95 % of control

Tell me the measured T/C of `Cc1cccc(C)c1OC(=O)Nc1ccccc1Cl` , please.
103 % of control

Tell me the measured T/C of `O=C(Nc1ccccc1Cl)OC/C=C/c1ccccc1` , please.
100 % of control

Tell me the measured T/C of `O=C(Nc1cccc2ccccc12)c1cccc([N+](=O)[O-])c1C(=O)O` , please.
96 % of control

Tell me the measured T/C of `O=C(Cl)C(=O)c1c[nH]c2ccccc12` , please.
95 % of control

Tell me the measured T/C of `O=C(Nc1ccc(C(=O)O)cc1)Nc1cccc2ccccc12` , please.
97 % of control

Tell me the measured T/C of ClCC1=NC2C(Cl)C(Cl)C(Cl)C(Cl)C2N1 (stereo unspecified) , please.
100 % of control

Tell me the measured T/C of `Cc1cc(C)cc(OCC#CCN(C)c2ccccc2)c1` , please.
96 % of control

Tell me the measured T/C of `CC(C)=CCC/C(C)=C\COc1ccc(C(C)(C)C)cc1` , please.
89 % of control

Tell me the measured T/C of `CCCCCCCCCCCC(N)=O` , please.
93 % of control

Tell me the measured T/C of CC1(c2ccc(F)cc2)OC(=O)c2c1ccc1ccccc21 (stereo unspecified) , please.
101 % of control

Tell me the measured T/C of `Nc1nc(SCC(=O)c2ccc(F)cc2)sc1C(=O)c1ccc(F)cc1` , please.
100 % of control

Tell me the measured T/C of `O=C(Nc1ccc(Cl)c(Cl)c1)Nc1ccc(Cl)c(Cl)c1` , please.
86 % of control

Tell me the measured T/C of `COc1cc(N)c2ncsc2c1` , please.
91 % of control

Tell me the measured T/C of `O=C1c2cc([N+](=O)[O-])ccc2-c2ccc([N+](=O)[O-])cc21` , please.
89 % of control

Tell me the measured T/C of `Cc1cccc(NC(=O)Nc2ccccc2Cl)n1` , please.
90 % of control

Tell me the measured T/C of `CCCN(CCC#N)C(=S)Nc1ccc(C)c(C)c1` , please.
94 % of control

Tell me the measured T/C of `Cc1cc(=O)n2c3c(cc(C#N)cc13)OC2` , please.
89 % of control

Tell me the measured T/C of `Cc1nn(C)c(Cl)c1[N+](=O)[O-]` , please.
94 % of control

Tell me the measured T/C of O=C1CCCC(c2ccccc2)O1 (stereo unspecified) , please.
101 % of control

Cited source for all entries: PubChem BioAssay AID248
